test system: L1210; experiment: Cytotoxicity against mouse L1210 cells; type: functional, cell-based
Below is a list of entries, each paired with its recorded pIC50 value.
On this scale, pIC50 is minus log10 of a concentration expressed in M (mol/L).

Guide cases for pIC50, answers given:
COC(=O)/C=C/C(=O)Nc1ccc(C)cc1	5.03
CC(=O)c1ccc(N2C(=O)CCC2=O)cc1	4.51
COC(=O)/C=C/C(=O)Nc1ccccc1	4.40
COC(=O)/C=C/C(=O)Nc1ccc(C)c(C)c1	5.66
O=C1C=C/C(=N\c2ccc(Cl)cc2)O1	4.23

IN: Name the reported pIC50 value associated with the compound "O=C1C=CC(=O)N1c1ccccc1"
OUT: 3.79

IN: Fill in the blank: the reported pIC50 of "N[C@@H](Cc1ccc(N(CCCl)CCCl)cc1)C(=O)O" is ____.
OUT: 5.68

IN: Which pIC50 is listed for "Cc1ccc(N2C(=O)CCC2=O)cc1" ?
OUT: 5.11

IN: I am curious: what pIC50 value has been reported for "O=C(O)/C=C/C(=O)Nc1ccc(Cl)c(Cl)c1" ?
OUT: 3.50

IN: Please look up its pIC50: "O=C1C=C/C(=N\c2ccc(Cl)c(Cl)c2)O1"
OUT: 4.33

IN: Form field: reported pIC50 of "COC(=O)/C=C\C(=O)Nc1ccc(C)cc1"
OUT: 4.33

IN: Returns the measured pIC50 for the input compound. Input: "COC(=O)/C=C/C(=O)Nc1c(C)cccc1C"
OUT: 4.47

IN: Given the entry "CC(=O)c1ccc(/N=C2\C=CC(=O)O2)cc1" , report its measured pIC50.
OUT: 3.66

IN: # lookup: pIC50 of "COC(=O)/C=C/C(=O)Nc1ccc(C(C)=O)cc1"
OUT: 4.77

IN: Returns the measured pIC50 for the input compound. Input: "COC(=O)/C=C\C(=O)Nc1ccc(Cl)c(Cl)c1"
OUT: 4.41

IN: Which pIC50 value belongs to "COC(=O)/C=C\C(=O)Nc1c(C)cccc1C" ?
OUT: 3.74

IN: Looking for the measured pIC50 of "COC(=O)/C=C/C(=O)Nc1ccc(Cl)cc1" , can you help?
OUT: 5.12

IN: Field request: pIC50 | item: "O=C1CCC(=O)N1c1ccc([N+](=O)[O-])cc1"
OUT: 4.39

IN: Which measured pIC50 value corresponds to "O=C1C=C/C(=N\c2ccc([N+](=O)[O-])cc2)O1" ?
OUT: 4.16

###

Sequence of the target: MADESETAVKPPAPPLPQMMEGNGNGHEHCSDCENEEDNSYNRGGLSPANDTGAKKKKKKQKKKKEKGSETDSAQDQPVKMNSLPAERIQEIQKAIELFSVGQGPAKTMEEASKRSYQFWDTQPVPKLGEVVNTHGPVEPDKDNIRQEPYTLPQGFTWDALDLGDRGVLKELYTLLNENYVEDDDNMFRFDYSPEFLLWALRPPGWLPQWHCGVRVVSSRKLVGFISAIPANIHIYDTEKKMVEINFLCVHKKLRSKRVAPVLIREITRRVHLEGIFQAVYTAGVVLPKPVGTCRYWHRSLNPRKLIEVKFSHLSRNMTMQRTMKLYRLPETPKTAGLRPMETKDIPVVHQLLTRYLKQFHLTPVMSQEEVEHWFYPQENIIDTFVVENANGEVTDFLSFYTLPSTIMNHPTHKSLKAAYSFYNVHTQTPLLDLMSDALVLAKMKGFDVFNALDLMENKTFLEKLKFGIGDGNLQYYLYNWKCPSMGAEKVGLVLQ
READOUT_NAME: IC50 (µM)
Note: unit µM is implicit; provide only the numeric part.

IN: Given the molecule "COC(=O)/C=C/C(=O)Nc1ccc(C)c(C)c1" , what is its reported IC50?
OUT: 2330
